Consider the following molecules; for each one, report its pIC50.
System: JURKAT human T-cell line
experimental protocol: Secondary assay: cell proliferation inhibition WST-1, Jurkat
Assay type: cell-based
measurement context: Homo sapiens; Jurkat cells, 48 h
Formally, pIC50 is defined as -log10 of the concentration c, with c in mol/L.

Noted pIC50 for CC(/C=C/C(=O)NO)=C\[C@@H](C)C(=O)c1ccc(N(C)C)cc1 [TSA, trichostatin A] , tested on JURKAT human T-cell line: 7.38

Noted pIC50 for O=C(/C=C/c1ccc2ccccc2n1)NO [PX117449] , tested on JURKAT human T-cell line: 6.00

###

System: HDAC (HeLa cell extract)
experimental protocol: Primary assay: deacetylase activity (HDAC inhibition), HeLa cell extract
Design: species or system human
measurement context: HeLa cell extract as HDAC source; read-out: Biochemical Assay Data HDAC Inhibition (IC50) HeLa
pIC50: −log10 of the molar value. Structures can show the parent of a compound that is named as a salt.
Mark N for pIC50 values under 7, and Y for everything at or above.

Query: Textbook exercise: given the entry Cc1ccc2nc(CCC(=O)NO)cc(C)c2c1 , state whether its pIC50 is greater than or equal to 7.
Response: N

Query: Textbook exercise: given the entry Cc1ccc2nc(/C=C/C(=O)NO)cc(C)c2c1 , state whether its pIC50 is greater than or equal to 7.
Response: N

Query: Textbook exercise: given the entry COc1ccc2nc(/C=C/C(=O)NO)ccc2c1Br , state whether its pIC50 is greater than or equal to 7.
Response: N

Query: Textbook exercise: given the entry O=C(/C=C/c1ccc2ccccc2n1)NO , state whether its pIC50 is greater than or equal to 7.
Response: Y

Query: Textbook exercise: given the entry O=C(/C=C/c1cnc2ccccc2n1)NO [PX118840, sodium salt] , state whether its pIC50 is greater than or equal to 7.
Response: Y

Query: Textbook exercise: given the entry O=C(/C=C/c1nc2ccccc2s1)NO , state whether its pIC50 is greater than or equal to 7.
Response: Y

Query: Textbook exercise: given the entry COc1ccc2nc(/C=C/C(=O)NO)ccc2c1 , state whether its pIC50 is greater than or equal to 7.
Response: Y

Query: Textbook exercise: given the entry O=C(/C=C/c1ccc2cccc(OCc3ccccc3)c2n1)NO , state whether its pIC50 is greater than or equal to 7.
Response: N

Query: Textbook exercise: given the entry O=C(/C=C/c1ccc2cc(F)ccc2n1)NO , state whether its pIC50 is greater than or equal to 7.
Response: Y

Query: Textbook exercise: given the entry O=C(/C=C/c1cnc2ccccc2c1)NO , state whether its pIC50 is greater than or equal to 7.
Response: N

Query: Textbook exercise: given the entry Cc1ccc2ccc(/C=C/C(=O)NO)nc2c1 , state whether its pIC50 is greater than or equal to 7.
Response: Y

Query: Textbook exercise: given the entry O=C(NO)c1ccc(OCc2ccc3ccccc3n2)cc1 , state whether its pIC50 is greater than or equal to 7.
Response: N

Query: Textbook exercise: given the entry Cc1ccc2nc(/C=C/C(=O)NO)ccc2c1 , state whether its pIC50 is greater than or equal to 7.
Response: Y

Query: Textbook exercise: given the entry O=C(/C=C/c1ccc2ncccc2c1)NO , state whether its pIC50 is greater than or equal to 7.
Response: N

Query: Textbook exercise: given the entry O=C(CCc1ccc2ccccc2n1)NO [PX118828, N-Hydroxy-3-(2-quinolinyl)propanamide] , state whether its pIC50 is greater than or equal to 7.
Response: N

Query: Textbook exercise: given the entry O=C(/C=C/c1nc2ccccc2o1)NO , state whether its pIC50 is greater than or equal to 7.
Response: Y

Query: Textbook exercise: given the entry O=C(/C=C/C=C/c1ccc2ccccc2n1)NO , state whether its pIC50 is greater than or equal to 7.
Response: N

###

Structures can show the parent of a compound that is named as a salt.
readout label: melting point

Record COc1ccc2nc(C)ccc2c1/C=C/C(=O)NO . Reported melting point: 225 to 227 °C

Record O=C(/C=C/c1nc2ccccc2s1)NO . Reported melting point: 163 to 165 °C

Record O=C(/C=C/C=C/c1ccc2ccccc2n1)NO . Reported melting point: 160 to 162 °C

Record O=C(CCc1ccc2cccc(O)c2n1)NO . Reported melting point: 165 to 167 °C

Record O=C(/C=C/c1ccnc2ccccc12)NO . Reported melting point: 204 to 206 °C

Record Cc1ccc2ccc(/C=C/C(=O)NO)nc2c1 . Reported melting point: 191 to 193 °C

Record O=C(/C=C/c1ccc2cccnc2c1)NO . Reported melting point: 203 to 205 °C

Record Cc1ccc2nc(/C=C/C(=O)NO)cc(C)c2c1 . Reported melting point: 199 to 201 °C

Record O=C(/C=C/c1ccc2ccccc2n1)NO . Reported melting point: 159.5 to 160.5 °C

Record O=C(/C=C/c1cccc2cccnc12)NO . Reported melting point: 159 to 160 °C

Record COc1ccc2nc(/C=C/C(=O)NO)ccc2c1 . Reported melting point: 172 to 175 °C

Record O=C(/C=C/c1cnc2ccccc2c1)NO . Reported melting point: 205 to 207 °C

Record Cc1ccc2nc(CCC(=O)NO)cc(C)c2c1 . Reported melting point: 192 to 194 °C

Record O=C(/C=C/c1cccc2ncccc12)NO . Reported melting point: 211 to 213 °C

Record COc1ccc2nc(/C=C/C(=O)NO)ccc2c1Br . Reported melting point: 204 to 206 °C

Record O=C(/C=C/c1ccc2cccc(OCc3ccccc3)c2n1)NO . Reported melting point: 180 to 182 °C

Record O=C(CCc1nc2ccccc2[nH]c1=O)NO . Reported melting point: 213 to 214 °C

Record Cc1nc2ccccc2nc1/C=C/C(=O)NO . Reported melting point: 170 to 172 °C

Record Cc1ccc2nc(/C=C/C(=O)NO)ccc2c1 . Reported melting point: 200 to 202 °C (dec.)

Record O=C(NO)c1ccc(OCc2ccc3ccccc3n2)cc1 . Reported melting point: 202 to 204 °C

Record O=C(CCc1ccc2ccccc2n1)NO [PX118828, N-Hydroxy-3-(2-quinolinyl)propanamide] . Reported melting point: 159 to 160 °C

Record O=C(/C=C/c1cnc2ccccc2n1)NO (as salt: sodium) . Reported melting point: 200 to 202 °C (dec.)
